- SYSTEM TESTED: GST-YTHDC1 (345-509) protein (Homo sapiens, UniProt Q96MU7)
- Construct: GST-YTHDC1 (345-509) protein
- ASSAY SUMMARY: Fluorescence polarization-based in vitro enzyme-level test against YTHDC1
- Assay type: binding
- CONDITION SET: 30 nM GST-YTHDC1 (345-509), FAM-labeled m6A-modified single-stranded oligonucleotide, 18° C., 4 hours; read-out: IC50 (Inhibitory Activity against YTHDC1)
OBSERVATION TYPE: IC50 (nM)
Numbers only, in nM.

Lab entry: GST-YTHDC1 (345-509) protein (Homo sapiens, UniProt Q96MU7) assay, molecule COC1CN(c2ccccc2C(=O)c2c[nH]c(C(=O)Nc3ccc(-c4cnco4)cc3)c2)C1 , IC50 = 35

Lab entry: GST-YTHDC1 (345-509) protein (Homo sapiens, UniProt Q96MU7) assay, molecule O=C(Nc1ccc(-c2cnc(N3CCC3)o2)cc1)c1cc(C(=O)c2ccccc2C(F)(F)F)c[nH]1 , IC50 = 9

Lab entry: GST-YTHDC1 (345-509) protein (Homo sapiens, UniProt Q96MU7) assay, molecule COCOc1cc(NC(=O)c2cc(C(=O)c3ccccc3C(F)(F)F)c[nH]2)ccc1-c1cnco1 , IC50 = 14.5

Lab entry: GST-YTHDC1 (345-509) protein (Homo sapiens, UniProt Q96MU7) assay, molecule CN(C)CCOc1cc(NC(=O)c2cc(C(=O)c3ccccc3C(F)(F)F)c[nH]2)ccc1-c1cnco1 [Compound 98] , IC50 = 15

Lab entry: GST-YTHDC1 (345-509) protein (Homo sapiens, UniProt Q96MU7) assay, molecule O=C(Nc1ccc(-c2cncnc2)cc1)c1cc(C(=O)c2ccccc2C(F)(F)F)c[nH]1 , IC50 = 86

Report IC50 for each item below.
1. O=C(Nc1ccc(-c2cnc(N3CCN(C4COC4)CC3)o2)cc1)c1cc(C(=O)c2ccccc2C(F)(F)F)c[nH]1
2. O=C(Nc1ccc(-c2cccnc2)cc1)c1cc(C(=O)c2ccccc2C(F)(F)F)c[nH]1
3. O=C(Nc1ccc(-c2cncs2)cc1)c1cc2c(-c3ccccc3[N+](=O)[O-])nccc2[nH]1
4. O=C(Nc1ccc(-c2cnco2)cc1)c1cc(C(=O)c2ccccc2N2CCOCC2)c[nH]1
5. O=C(Nc1ccc(-c2cnco2)cc1)c1cc(C(=O)c2ccccc2N2CCCC2)c[nH]1
6. O=C(Nc1ccc(-c2cnc[nH]2)cc1)c1cc(C(=O)c2ccccc2C(F)(F)F)c[nH]1

[out]
[71.2, 47, 278, 20, 23, 23]
